# Lookup of reported IC50 keyed by entry
Species on record: Rattus norvegicus
Experiment: The compound was tested for its inhibition of currents generated by 50 uM Kainate in Xenopus oocytes injected with rat brain mRNA
Assay type: functional
Write the value in nM as a bare number.

The examples below pair each entry with its known result.
CNC(=O)Nc1ccc2c(c1)C(CC(=O)O)c1c-2nc(O)c2nccn12 (single isomer, unassigned; (+)) | 2
CNC(=O)Nc1ccc2c(c1)C(CC(=O)O)c1c-2nc(O)c2nccn12 (racemic) | 20

Now let's try a different one.
Task: I would be grateful if you could share the reported IC50 for CNC(=O)Nc1ccc2c(c1)C(CC(=O)O)c1c-2nc(O)c2nccn12 (stereo in doubt; (-)-3) .
Result: 6.7

----------
Target: Glutamate receptor ionotropic, AMPA (Rattus norvegicus, UniProt P19490+P19491+P19492+P19493)
Experiment: The compound was tested for its affinity for Ionotropic glutamate receptor AMPA in in vitro binding assay on rat cortical membrane preparations using [3H]AMPA as ligand
pIC50: −log10 of the molar value.
Mark satisfied for reported pIC50 of 7 or greater; mark not satisfied for anything smaller.

Worked examples, 4 compounds total:
CC(=O)Nc1ccc2c(c1)Cc1c-2nc(O)c2nccn12 | not satisfied
CN(C)C(=O)Nc1ccc2c(c1)Cc1c-2nc(O)c2nccn12 | satisfied
CNC(=O)Nc1cccc2c1Cc1c-2nc(O)c2nccn12 | not satisfied
CCOC(=O)Nc1ccc2c(c1)Cc1c-2nc(O)c2nccn12 | not satisfied

Task: For this compound, is measured pIC50 7 or higher? O=S(=O)(O)c1ccc2c(c1)Cc1c-2nc(O)c2nccn12
Result: not satisfied

----------
Molecular target: Glutamate NMDA receptor
Experiment: In vitro affinity for N-methyl-D-aspartate glutamate receptor 1 using [3H]5,7-dichlorokynurenate([3H]-DCKA) as ligand
Assay type: protein-complex assay
readout label: log10 of IC50 (log10 of the value in µM)
Answers are given as log10 of IC50 in µM.

The examples below pair each entry with its known result.
Nc1ccc2c(c1)Cc1c-2nc(O)c2nccn12 | 1.34
Oc1nc2c(n3ccnc13)Cc1ccc(F)cc1-2 | 0.00
CNC(=O)Nc1cccc2c1Cc1c-2nc(O)c2nccn12 | 0.36

Task: I would be grateful if you could share the reported log10 of IC50 for Oc1nc2c(n3ccnc13)Cc1ccc(Cl)cc1-2 .
Result: -0.74

Task: Note, next up: O=C(NCc1ccccc1)Nc1ccc2c(c1)Cc1c-2nc(O)c2nccn12
Result: 2.00

----------
Molecular target: Glutamate NMDA receptor
Assay: In vitro affinity for N-methyl-D-aspartate glutamate receptor 1 using [3H]5,7-dichlorokynurenate([3H]-DCKA) as ligand
readout label: pIC50
The scale used: pIC50 is minus the common logarithm of the concentration in molar units.

CNC(=O)Nc1ccc2c(c1)C(CC(=O)O)c1c-2nc(O)c2nccn12 (racemic) | 4.85

Task: I would be grateful if you could share the reported pIC50 for CNC(=O)Nc1ccc2c(c1)/c(=C/C(=O)O)c1c2nc(O)c2nccn21 .
Result: 4.00

Task: Note, next up: Oc1nc2c(n3ccnc13)Cc1cc(F)ccc1-2
Result: 5.11

Task: Note, next up: CCOC(=O)Nc1ccc2c(c1)Cc1c-2nc(O)c2nccn12
Result: 5.08

Task: Note, next up: CCNC(=O)Nc1ccc2c(c1)Cc1c-2nc(O)c2nccn12
Result: 5.00

Task: Note, next up: Oc1nc2c(n3ccnc13)Cc1c(Cl)cccc1-2
Result: 4.00

Task: Note, next up: CN(C)C(=O)Nc1ccc2c(c1)Cc1c-2nc(O)c2nccn12
Result: 4.00

Task: Note, next up: Cc1ccc2c(c1)-c1nc(O)c3nccn3c1C2
Result: 5.68

Task: Note, next up: O=C(Cc1ccccc1)Nc1ccc2c(c1)Cc1c-2nc(O)c2nccn12
Result: 4.00

Task: Note, next up: CNC(=O)Nc1ccc2c(c1)C(CC(=O)O)c1c-2nc(O)c2nccn12 (single isomer, unassigned; (+))
Result: 5.00

Task: Note, next up: CC(=O)Nc1ccc2c(c1)Cc1c-2nc(O)c2nccn12
Result: 5.00

Task: Note, next up: Oc1nc2c(n3ccnc13)Cc1c(F)cccc1-2
Result: 4.00

Task: Note, next up: COc1ccc2c(c1)Cc1c-2nc(O)c2nccn12
Result: 5.28

Task: Note, next up: CNC(=O)Nc1ccc2c(c1)Cc1c-2nc(O)c2nccn12
Result: 4.00

Values from ChEMBL document CHEMBL1133430
